Molecular target: T1, membrane LIGHT T191A (human, UniProt O43557 1-240)
T1 chain: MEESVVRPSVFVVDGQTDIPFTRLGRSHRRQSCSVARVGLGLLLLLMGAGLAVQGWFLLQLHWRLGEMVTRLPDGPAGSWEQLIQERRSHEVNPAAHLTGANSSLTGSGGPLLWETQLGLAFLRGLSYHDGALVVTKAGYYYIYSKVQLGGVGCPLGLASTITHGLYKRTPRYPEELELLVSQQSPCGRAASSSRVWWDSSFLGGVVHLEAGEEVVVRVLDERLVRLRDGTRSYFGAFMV
Experiment: flow cytometry, transfected HEK293FF, mAb at EC50
readout name: binding, % of WT (%)
Hi! Could you send only the number? It should be in %, unit omitted.

These solved cases illustrate the format of a correct answer.
{"binder": "3E09 (antibody, V domains shown, chimeric human IgG4 (S-to-P, L-to-E at 248), human CL; also called Parental 3E09) VH: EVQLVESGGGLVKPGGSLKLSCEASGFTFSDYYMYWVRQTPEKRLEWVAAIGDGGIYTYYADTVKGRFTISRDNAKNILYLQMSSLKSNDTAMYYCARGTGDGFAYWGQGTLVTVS VL: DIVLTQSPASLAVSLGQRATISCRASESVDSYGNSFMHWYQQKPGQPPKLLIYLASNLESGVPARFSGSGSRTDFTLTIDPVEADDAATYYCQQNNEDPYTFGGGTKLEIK", "endpoint unit": "%", "value measured": 88}
{"binder": "3C10 (antibody, human IgG4, V domains shown, chimeric human IgG4 (S-to-P, L-to-E at 248), human CL; also called Parental 3C10) VH: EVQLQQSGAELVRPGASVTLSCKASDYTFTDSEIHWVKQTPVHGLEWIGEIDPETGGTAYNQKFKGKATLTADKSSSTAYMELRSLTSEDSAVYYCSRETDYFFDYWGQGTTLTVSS VL: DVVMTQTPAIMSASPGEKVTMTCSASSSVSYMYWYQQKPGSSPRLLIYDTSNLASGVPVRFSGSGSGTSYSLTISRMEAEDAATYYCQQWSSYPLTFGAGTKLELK", "endpoint unit": "%", "value measured": 3}

Q: Recorded binding, % of WT of 2B11 (antibody, human IgG4, V domains shown, chimeric human IgG4 (S-to-P, L-to-E at 248), human CL; also called Parental 2B11) VH: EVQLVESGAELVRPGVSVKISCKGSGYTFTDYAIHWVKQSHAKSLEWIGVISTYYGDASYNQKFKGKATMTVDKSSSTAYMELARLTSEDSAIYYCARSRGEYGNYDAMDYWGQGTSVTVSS VL: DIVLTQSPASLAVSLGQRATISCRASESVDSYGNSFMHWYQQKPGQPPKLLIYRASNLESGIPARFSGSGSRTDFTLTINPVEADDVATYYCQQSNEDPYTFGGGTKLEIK , please.
Ans: 1
